ASSAY: small-molecule microarray binders of probe aWnt5a, primary screen, biochemical, biotinylated probe, 635/667 nm fluorescence (AID 1113);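 also: score merges 667 nm fluorescence intensity with signal-to-noise per printed feature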
ASSAY CONTEXT: higher = more signal
Listed compounds paired with reported composite z-score
API note: the answer field is a bare number with no unit suffix.

Some solved entries appear below for comparison.
CC(C)C[C@@H]1NC(=O)[C@@H]2C[C@H](C(=O)NCCCCCN)[C@H](c3ccc(O)cc3)N2C1=O    -0.0194
CCCCCCc1nc(C2CC2)cc2c1[Si](C(C)C)(C(C)C)O[C@H]2c1ccccc1    -0.154

Notebook: CCCC[C@@H]1C[C@H]1[C@@H](NC(=O)c1cccs1)c1ccc(C(F)(F)F)cc1 , composite z-score read as -0.0334

Notebook: CN1C(=O)C2C=CC(C(O)c3cccc4ccccc34)N(N3CCCCC3)C2C1=O (stereo unspecified) , composite z-score read as -0.027

Notebook: COC(=O)[C@H](Cc1ccccc1)N1CC(/C=C/C2CC2)=C[C@H]1[C@H](O)Cc1ccccc1 , composite z-score read as -0.0944

Notebook: CCCCCCCCCCC(O)C1C=CC2C(=O)N(C)C(=O)C2N1NC(=O)OC(C)(C)C (stereo unspecified) , composite z-score read as -0.0684
